Cited source: PubChem BioAssay (NCI)

System: U251 CNS
Please state which outcome applies, choosing from active, inactive

Below are worked cases with known answers.
COC(=O)[C@@H](C)C[C@H](Cc1ccccc1)NC(=O)c1cccc([C@@H](C[C@H](C(C)C)N(C)C(=O)[C@@H](NC(=O)[C@H]2CCCCN2C)C(C)C)OC(C)=O)n1 active
Cn1cc(C2=C(c3cn(CCCSC(=N)N)c4ccccc34)C(=O)NC2=O)c2ccccc21 inactive
C#Cc1cccc(NC(=O)Nc2cccc(NC(=O)CCl)c2)c1 inactive
CCS(=O)(=O)Nc1ccc(Oc2ccc(F)cc2F)c(-c2cn(C)c(=O)c3[nH]ccc23)c1 active

Proceed to the following item.
Input: For Cc1cc(N2CCOCC2)nc(N(CCNc2ccnc3cc(Cl)ccc23)Cc2cccs2)n1 , what call appears in the results of this test?
Output: inactive

* * *

Tested on: ACHN renal
Experimental Details: NCI tumour cell line growth inhibition, 48 h
Entries and their TGI values follow.

Molecule	TGI
C=CCn1c(=O)c(-c2ccccc2)c(O)c2ccccc21	> 100 µM
O=c1n(CCO)nc2n1CCCN2	> 100 µM
CC(=O)OC1C(OC/C2=C/C3[C@@H](C(C)C)CC=C(C)[C@@H]3CC(OC(=O)/C=C/c3cn(C)cn3)[C@]3(C)C=C[C@@]2(O)O3)OCC(O)C1O (stereo partly specified)	> 50 µM
COCC(O)CN1C(N)=NC(O)C1O (stereo unspecified)	> 100 µM
Cc1nn(C(=O)CC(=O)Nc2ccccc2Cl)c(C)c1N=Nc1ccccc1Cl	> 100 µM

Input: Report TGI for COC[C@H](Cc1ccccc1)N=Cc1ccccc1 please.
Output: > 100 µM

* * *

System: NCI/ADR-RES ovarian
Experimental Details: NCI tumour cell line growth inhibition, 48 h
Measure: TGI

Compound	Target	Readout Value
COc1ccc2[nH]c3c(C)c4ccnc(NCCCN(C)CCCNC(=O)NCCCN(C)CCCNc5nccc6c(C)c7[nH]c8ccc(OC)cc8c7c(C)c56)c4c(C)c3c2c1	NCI/ADR-RES ovarian	> 50 µM

Input: Look up TGI for this compound: Oc1c(Br)cc(Br)c2cccnc12
Output: > 100 µM

Input: What value of measured TGI is listed for O=C1CSC(c2ccc(Cl)cc2)N1c1ccc(-n2c(-c3ccccc3)nc3ccccc3c2=O)cc1 (stereo not given) ?
Output: > 100 µM

Input: Any idea what its TGI is? The compound is CCCC1C2=C(C(=O)OC2=O)C2C(CC)CC3=C(C(=O)OC3=O)C12 (stereo not given)
Output: > 100 µM

Input: So what does the record say about TGI for CCOC(=O)C1(C/C=C\CBr)CCCCCCC1=O (stereo not given) ?
Output: > 100 µM

* * *

Test system: MCF7 breast
Experimental Details: NCI tumour cell line growth inhibition, 48 h
Measure: TGI

Input: Item COC(=O)[C@H]1ON2O[C@H](OC3CCCC[C@@H]3c3ccccc3)C[C@@H]3CC[C@H]1[C@@]32C (stereo partly specified) has what recorded TGI?
Output: > 100 µM

Input: # TGI lookup, item COC(=O)[C@@H](C)C[C@H](Cc1ccccc1)NC(=O)c1cccc([C@@H](C[C@H](C(C)C)N(C)C(=O)[C@@H](NC(=O)[C@H]2CCCCN2C)C(C)C)OC(C)=O)n1
Output: > 16.7 µM

Input: Report TGI for COc1cc(OC)cc(N(C)Cc2cnc3nc(N)nc(N)c3c2C)c1 please.
Output: > 100 µM

Input: Could you tell me which TGI is on file for CCCCCCCCCCCCCCCCCc1nc(C#N)c(N)o1 ?
Output: > 100 µM

Input: Given the entry O=C1NC(N2CCCC(CO)C2)=N/C1=C\c1ccc(O)cc1 (stereo unspecified) , report its measured TGI.
Output: > 100 µM

Input: For the compound shown here, COc1ccc2c(c1)CCC1C2CCC2(C)C1CC[C@@]2(O)CNC(=O)/C=C/c1ccc(O)c(O)c1 (stereo partly specified) , give the reported TGI.
Output: > 100 µM

Input: Reported TGI for CCCC1C2=C(C(=O)OC2=O)C2C(CC)CC3=C(C(=O)OC3=O)C12 (stereo unspecified) : what is it?
Output: > 100 µM

Input: Look at this compound and give its reported TGI. NC(=O)NOCC1NC(=O)NC1=O (stereo unspecified)
Output: > 100 µM

Input: Data request, read-out TGI, for Oc1c(Br)cc(Br)c2cccnc12
Output: > 100 µM

Input: Data request, read-out TGI, for Nc1c2ccccc2nc2ccc(C(=O)Nc3ccc(S(N)(=O)=O)cc3)cc12
Output: > 100 µM

Input: Name the reported TGI value associated with the compound CN(C)/C=C/c1ccnc2c1C(=O)c1ccccc1C2=O
Output: > 44.7 µM
